Below, each entry is listed with its recorded growth.
System: UACC-257 melanoma
measurement_notes: NCI-60 one-dose screen, 48 h (100 = growth as untreated, 0 = no growth, -100 = all killed)
measurement_setup: 10 µM unless noted
This is part of a sample that, as a whole, favours compounds with a hit. Of some 83,000 tested, about 20% had one in any assay.
Express the result in % but write the number alone.

*Q* // returns reported growth for input NS(=O)(=O)c1cccc(Nc2nc(SCC(=O)c3ccc(Cl)cc3)nc3ccccc23)c1
*A* 95

----------
Test system: COLO 205 colon
measurement_notes: NCI-60 one-dose screen, 48 h (100 = growth as untreated, 0 = no growth, -100 = all killed)
measurement_setup: 10 µM unless noted
This is part of a sample that, as a whole, favours compounds with a hit. Of some 83,000 tested, about 20% had one in any assay.
readout_kind: growth (%)
Could you give me the number in %? Just the number is fine.

*Q* Given the entry CC(C)Sc1nc(Nc2ccc(S(N)(=O)=O)cc2)c(C#N)c(-c2ccc(F)cc2)n1 , report its measured growth.
*A* 79

*Q* Follow-up item: C=CCn1c(SCC(=O)c2ccc(Br)cc2)nnc1-c1c[nH]c2ccccc12
*A* 108

*Q* Would you mind doing C#Cc1nc(C2=C(C)C(OC(=O)CCC(=O)O)CC2)cs1 (centres undefined) as well?
*A* 122
